Values were extracted from patent US4322340A.

Parameter: mean of the total counts, locomotor activity over three hours. Scope: all listed entries.
# Tested on: mouse
# protocol notes: mouse locomotor activity test (physical dependence liability)
# Format: in vivo
# condition details: Dose 128 mg./kg. subcutaneously, group of ten mice
Structures can show the parent of a compound that is named as a salt.

CCN(C(=O)CNC(=O)[C@@H](C)NC(=O)[C@@H](N)Cc1ccc(O)cc1)[C@@H](Cc1cccc(Cl)c1)C(N)=O [Example 5, Acetate Salt]
2807 counts

Challenge: What value of measured mean of the total counts, locomotor activity over three hours is listed for CCN(C(=O)CNC(=O)[C@@H](C)NC(=O)[C@H](Cc1ccc(O)cc1)NC)[C@@H](Cc1cccc(C)c1)C(N)=O [Example 4, Acetate Salt] ?
Response given: 3852 counts

Challenge: What value of measured mean of the total counts, locomotor activity over three hours is listed for CCN(C(=O)CNC(=O)[C@@H](C)NC(=O)[C@H](Cc1ccc(O)cc1)NC)[C@@H](Cc1cccc(Br)c1)C(N)=O [Example 2, Acetate Salt] ?
Response given: 5153 counts

Challenge: What value of measured mean of the total counts, locomotor activity over three hours is listed for CCN(C(=O)CNC(=O)[C@@H](C)NC(=O)[C@@H](N)Cc1ccc(O)cc1)[C@@H](Cc1cccc(I)c1)C(N)=O [Example 7, Acetate Salt] ?
Response given: 2871 counts

Challenge: What value of measured mean of the total counts, locomotor activity over three hours is listed for CCN(C(=O)CNC(=O)[C@@H](C)NC(=O)[C@H](Cc1ccc(O)cc1)NC)[C@@H](Cc1cccc(Cl)c1)C(N)=O [Example 6, Acetate Salt] ?
Response given: 3476 counts

Challenge: What value of measured mean of the total counts, locomotor activity over three hours is listed for CN[C@@H](Cc1ccc(O)cc1)C(=O)N[C@H](C)C(=O)NCC(=O)N(CC1CC1)[C@@H](Cc1cccc(Br)c1)C(N)=O [Example 1, Acetate Salt] ?
Response given: 2159 counts
